Data origin, for the record: patent US20220396632A1

target.desc: T1, Sulfotyr fibrinogen γ peptide (not fully specified; Y8 and Y12 sulfated (SO3); C-terminal biotin)
T1 construct: also called Fibrinogen gamma peptide; human sulfotyrosinylated fibrinogen peptide
T1 peptide: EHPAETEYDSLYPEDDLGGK
run.description: ELISA, 50 nM mAb
// N strictly below 0.6 in binding normalized to PSGL-1; Y otherwise

Please review the following examples before continuing.
20I15 (antibody, V domains shown, From mouse immunisation; only variable domains given; also called 20115) VH: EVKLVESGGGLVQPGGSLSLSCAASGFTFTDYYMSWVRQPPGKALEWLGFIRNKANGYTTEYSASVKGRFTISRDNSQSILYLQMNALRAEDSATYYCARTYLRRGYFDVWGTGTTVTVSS VL: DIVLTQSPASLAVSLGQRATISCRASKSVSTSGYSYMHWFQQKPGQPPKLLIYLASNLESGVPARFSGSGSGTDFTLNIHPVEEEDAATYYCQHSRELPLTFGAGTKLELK; N
09A08 (antibody, IgG4, V domains shown) VH: QVQLVQSGAAVKKPGESLKISCKGSGYTFSNYWIGWVRQMPGKGLEWMGIIYPGDSDTRYSPSFQGQVTISADKSISTAYLQWSSLKASDTAMYYCARHIVGPPKSAFDIWGQGTMVTVSS VL: DIVMTQTPLSLPVTLGQPASISCSSSQGLQKRDGNTYLNWFQQRPGQSPRRLIYKVSNRDSGVPDRFSGSGSGTDFTLKISRVEAEDVGVYYCMQGTHWPWTFGQGTRVEIK; N
08C07 (antibody, IgG4, V domains shown) VH: QMQLVQSGAEVKKPGSSVKVSCKASGGTFSNYGMIWVRQAPRQGLEWMGRIIPFLDKPDYSEKFQDRITFTADKSTSTVYMELRGLRSDDTAVYYCAKWTSTLQGITTGQTWGQGTLVTVSS VL: QPVLTQPPSASGTPGQRVTISCSGSSSNIGGSYMYWYQQFPGTAPKLLIYRNNQRPSGVPDRFSGSKSGTSASLAISGLRSEDEADYYCAAWDVSLSGWVFGGGTKLTVL; N

Could you please find out whether 07E07 (antibody, IgG4, V domains shown) VH: QVQLQQSGAEVKKPGASVKVSCKASGYTFTSYYMHWVRQAPGQGLEWMGIINTSSGSTKYAQRFQDRVTVTRDTSTTTVYMELNSLRSEDTAVYYCARGGRAYSGSFDNWGQGTLVTVSS VL: DVVMTQSPLSLPVTLGQPASISCRSSQSLVHRDGNTYFNWFQQRPGQSPRRLIYKVSNRDSGVPDRFSGSGSGTDFTLKISRVEAEDVGVYYCMQATHWPRTFGQGTKVEIK has binding normalized to PSGL-1 that meets 0.6 or exceeds it?
Y

Could you please find out whether 05E08 (antibody, IgG4, V domains shown) VH: EVQLVQSGGGVVQPGRSLRLSCAASGFTFSTYAMHWVRQAPGKGLEWVAVISYDGSNKYYADSVKGRFTISRDNSRNTLFLQMNSLRDEDTAVYYCAKRGTMIRGERSLDFWGQGTLVTVSS VL: AIQMTQSPSFLSASVGDRVTITCRASQGINSWLAWYQQKPGTAPNLLIHAASTLQSGVPSRFSGSRSGTEFTLTISSLQPEDFATYYCQQLQSYPLTFGQGTRLEIK has binding normalized to PSGL-1 that meets 0.6 or exceeds it?
Y

Could you please find out whether 05H03 (antibody, IgG4, V domains shown) VH: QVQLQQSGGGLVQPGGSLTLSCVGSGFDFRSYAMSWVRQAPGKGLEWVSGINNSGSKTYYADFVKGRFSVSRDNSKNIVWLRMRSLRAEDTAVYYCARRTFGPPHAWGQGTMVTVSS VL: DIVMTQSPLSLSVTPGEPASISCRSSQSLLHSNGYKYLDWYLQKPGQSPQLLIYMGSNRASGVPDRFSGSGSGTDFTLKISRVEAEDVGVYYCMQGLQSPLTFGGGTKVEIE has binding normalized to PSGL-1 that meets 0.6 or exceeds it?
Y

Could you please find out whether 06A07 (antibody, IgG4, V domains shown) VH: QVQLVQSGPELKNPGASVKVSCKASGYSFTNFYINWVRQAPGRGLEWVGWISPNNGNTHYARNLQGRVTMTTDTSTNTAYLELKNLRSDDTAIYFCGRSVSMGYWGQGTLVTVSS VL: LPVLTQPPSVSKGLRQTATLTCTGNSKNVGNQGAAWLQQHQGQPPKLLSYRNNNRPSGISERFSASRSGNTASLTITGLQPEDEADYYCSAWDSSLSAQVFGGGTKLTVL has binding normalized to PSGL-1 that meets 0.6 or exceeds it?
Y

Could you please find out whether 5E12 (antibody, V domains shown, Mouse hybridoma mAb; only variable domains given) VH: EIQLQQSGAELVRPGASVKLSCTASGFNIKDDYIHWVKQRPEQGLEWIGRIDPANGNTKSAPKFQDKATITADTSSNTAYLHLSSLTSEDTAVYYCSIRFAYWGQGTLVTVSA VL: DVVMTQTPLSLSVSLGDQASISCRSSQSLVYRNGDTYLHWFLQKPGQSPKLLIYKVSNRFSGVPDRFSGSGSGTDFTLKISRVEAEDLGIYFCSQNTHVPYTFGGGTKLEIK has binding normalized to PSGL-1 that meets 0.6 or exceeds it?
N

Could you please find out whether 10B03 (antibody, IgG4, V domains shown) VH: EVKLLESGGDLVQPGGSLRLSCAASGLTFSNYAMSWVRQAPGKGLEWVSAISGSGDNTYYADSVKGRFTISRDNSKNTLYLQMNSLRADDTAVYFCAKRDSWGQGTLVTVSS VL: QAVLTQPPSASGTPGQRVTISCSGSTSNIGSRDVYWYQHLPGTAPKLVIYRNDQRPSGVPDRFSGSKSGTSASLAISGLRSEDDADYYCAVWDNSLRGRVFGGGTKLTVL has binding normalized to PSGL-1 that meets 0.6 or exceeds it?
Y
